experiment: protease stability score; higher = more stable; yeast display proteolysis, trypsin and chymotrypsin;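 further: relative to predicted unfolded state with 0 unfolded-like and 1 meaning tenfold more protease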
propertyLabel: protease stability score
Numbers only.

Example sequences with recorded protease stability score:
| seq | propertyLabel | assayResult |
| --- | --- | --- |
| DEDDHFWERLTEIILHILQTGNEEALHRMLDPHMRLDYNGRSFHGRELAQKALMRFWEDLGVDHIRVKDRRVQGDKVHLHGEIIIDGRLHETREHWLIVNGRIKHVRLEIR | protease stability score | 0.696 |
| DESKDDSRRAVNLVVRTIQTGDWDLLIELLDPNVKIEINGQDLHGRETLFKTWLDEMRKLGVDRVHVELKHIEVQGEKVIVHVDVSVNGRDIKTEIIIHKVDGKWFIKSLHFK | protease stability score | 1.31 |
| DDREEHAKELVDLFQKVMLTGDFKTLEELIDPNYRLHVNGQDVHGMERVIRHIFHMRFQDVKVKRIDHQGNKIDMDVRSIVNVDGRLHEHEIQLIALKVDGRWTVKSLEVH | protease stability score | 1.48 |
| SEVQETIDHLVREVLHDFRTGDERRLEENMDPNAKSIFDGRESHGREKVSKMIHDFLEEMGFKHMELKEREVVGNKVEIHGRVIIGDKEFELHLHSQKIDGRWVLDSIRIE | protease stability score | 0.52 |

Now for the sequence whose protease stability score we want.
Q: Tell me the measured protease stability score of `SKREDKWKHHVEVLIRLWQTGDEDTLKELFDPNVLLLVIYNGRNIHNHGRELAMHWLRYLLEHLGIDHYHIESSSVIGDKVEIKSRVYIGDKTYELDLEIRIIDGRLKSLNVNIE` , please.
Ans: 0.8

* * *

experiment: protease stability score; higher = more stable; yeast display proteolysis, trypsin and chymotrypsin;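 further: relative to predicted unfolded state with 0 unfolded-like and 1 meaning tenfold more protease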
Give measured protease stability score for each item. Keep answers brief.
Answers are plain numbers.

Guide cases for protease stability score, answers given:
| seq | protease stability score |
| --- | --- |
| DEHKREMRILLQLWREFWLTGDWRNILKNADPDYRLTVNGRDFVGMELATEFLEIILRHLRVKHIILRHEELVDGVLHVEGEIDGNIDGKETIHENEINMFVYNGKIHEVELHLK | 1.36 |
| DETEERTRKAIKLSLEVLRTGDERVISEMADPHVRLDFNGRQLHGREEFVHHIVRFFEEAGINYLHIEDWDVFNGVIIEHVRWNFNGREVEVEIIANKVNGKWLIKEFRIK | 1.07 |

Dear colleague, could you please provide protease stability score for the sequences listed below?
1. DDTKKHMEKIFRLMIEWWETGDFDRMENNADPHVRAHIGDKEIHGREEMIKLIRELIEELGIDHEETEEVRVYDGRIHVHSRLHINGKEIEVQLHSQVVDGRIESFELHVITR
2. DESTRDVKEMVEWFLRTLHTGDEHLLEHLLDPDVRVLIDGREHHGRETMREIWKEHIDKIKGAVIEIKRIEVRIQGNKAHLHVDTVLHYNGRNLDTHIEIIITKINGQWRVREVEIRVR

Ans:
1: 1.05; 2: 2.21

Report protease stability score for each item below.
1. DHQEKRTTEANEMFREAIETGDEKTLTRLVDPNVKIIVGDKRYHGREWFLHLMLHEILHLRVRIHTEDYRVVDGRIEFITHLEIEIGDKTVRRETFVFVDKINGRWLYQSFQDG
2. DEQERAYELALRTIEHDLRTGDEKSLQENADPNTRLLVGDKELVGWELFIKLMREIRIRHIEVRHMEVQGNKLIFDGKVDGEIGDKRVEYETEIILEKVDGQWRIKEKRLH
3. SEEEKILDDILKLFLDDVRTGNEDSLHRLADPHVRQDYNGVELHGMELVVHWLVELRVEDWRHKDSDSAENRVHLNGIVDGNINGKKQRREIILVIRKVDGRWFLEHNIVI
4. HQEDRLVFALAKDWIDNLETGDEDKMLQRADPRRQLIIDGRTFHGWENTYENMKQIRIEHLEIRDMTVVDGRIHINTHSILIINGRRFETETSIRLVVVNGVIQDVDININ
5. DERREIMEEWARDVIEWLETGDFEAIERNLDPNVRHDFNGKEFHGREQVIKSFHDILKRIKNIRIETRHIEVVDGVTHWDGDVNVNGVRTHVDINIEVINGVFHDFYIKFK
6. DEDTEKAEKFVHSFLMAMLTGDEEELWKYLDPRVRTIIGDKHYHGREQTKKAWEELGIDHSDVERFHVHIQGDKVEVHIDLRVHVNGRSYDVHIILIVTKINGKWYIDTLIFRKV
7. DEDMREAVKIAHRWLQHMTTGDEESIQSLADPHTKILFNGRELHGRHVITHLIREIRIKYTHLEHRDWRVVDGQLHLDFREDLRIEFDGQVRRIEIESHFMIIKINGRWFVHEVHLR
8. SHWEEDARRFNEIFITHFMTGDWHHLERMLDPHTRAHINGVNTVGREEVSRLVTELFEELGAKHHRIHDFRIQGDKVDTHHHLDVNGRNNHFIIHVKKINGKWRVESIEMTVI

Ans:
[0.773, 0.862, 1.23, 0.081, 1.19, 1.44, 0.636, 1.22]

Give me protease stability score for each of these sequences, listed below.
1. REEEERVEHLARLVFRALMTGDEDEYKHLADPDDRLILVINGRRQEFHGMEVVLEWLRHLLKEIRIHHSHIHDVKVIGDKVDFDTSVDVEYNGQRHWRKMRVIIIIVNGRYRSVEIILE
2. TEEDEVTEELARNWVKYFLTGDEEQLHRLMDPNARFHTIVGDKHVHRHGRESIVHWIDHVLRHIRIEEVHIRRVHIWNGRVDINNEEIGRVGDKHYRTEVRIHLRIVDGVIRSVDIDIE
3. SEEEESSERATKILRELLKTGNFRLLLELMDPNARLHTHINGVNIHDHGRNLARWLVERIKNAVIKINDEEVRIFNGRVEVDIDGELLINGRNFRVHEHWIFRKIDGKWFFEEVEIRVE

Ans:
1: 2.26; 2: 0.693; 3: 2.16

* * *

assay: protease stability score; higher = more stable; yeast display proteolysis, trypsin and chymotrypsin;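 further: relative to predicted unfolded state with 0 unfolded-like and 1 meaning tenfold more protease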
propertyLabel: protease stability score
One number for each entry.

See these solved cases before continuing.
| seq | protease stability score |
| --- | --- |
| DEEEHIMRRVTDILVHYIATGDEDSLTRLLDPHARIIIDGRTIHGREWIQHHLRRIDHIHMHSYHIHDIRIQGDKVYADQEIDVEHRVNGVTIRKRFHVNIITVKVNGQWYLHSINNQ | 1.45 |
| SEEERDMKEWLRLHVEALRTGDEHHLRHLMDPHTRIQVGDKEIHGMDEIARHVREIRQHVEIRVHHVEIIGDKIIMDVELRLIVHFDGKTFDIKTRFLLHIWKVNGRWILKSVHIE | 1.21 |
| DELEETAERMMKQFTDMWRTGDEEYFWRLADPHVRVNIDGVTRIGREESSEMFERWIRHIRLKSVHIEEVEIQGEKSHSDGRLNEIVDGKEEIVHVTINLIVINGRIHSVEFERE | 0.765 |

Hi! Can you tell me protease stability score for each of these sequences?
1. DEEKEIVENTTRLYWHLMETGNFDRWMKEADPNTRQDVDGKELHGMELVAHRIRELLEKFKGVRFHVEDIKIINGRSHMDIRIIIGDKHIEAHLILLVVDGRLKHVSLIIR
2. SEEEEDMRKAHEFVDKLIHTGDEDETRRYADPNVLVTINGRRWVGRDDYVEVLREILHRADHVHLHEKSIRIVDGVVQINSNLFIKQGDKEIHLDIRFHIRKVNGRWDMKRMEIR
3. DHTKKMAEEALRDFWRDFRTGDEDSLNKMADPNVRILIGDKEVVGRERMVELFREVLKKYKNARVITDIEDLDDQGNWVHSDVRFHLHVGDKTVDIEREIVMRKVNGRWYIETHVVK

Ans:
1. 1.99
2. 1.64
3. 0.397

Please state, for each entry, its recorded protease stability score.
1. DRHEELNKEIAEELVHWHRTGDWEEIQRNMDPNVRMEINGVENVGRETMAEILHEWLSRIKGLRVEIKHVEIIGDKVHIHGRININGRERNTHIDLHVVNGQMHELIIKVE
2. DEHQERNRRALEEMNRILDTGDWEELTELADPHVRIHYGEFNLHGREDAHRFWKHIVERFKGIRVNIHDVKMVGNYVDVDGHLEIGDKEHKVRIIAFKINGRWLLHSMHFV

Ans:
[0.279, 1.38]

* * *

Can you tell me protease stability score for the items I'm about to list?
experiment: protease stability score; higher = more stable; yeast display proteolysis, trypsin and chymotrypsin;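 further: relative to predicted unfolded state with 0 unfolded-like and 1 meaning tenfold more protease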
One number for each entry.

Please state protease stability score for every sequence in the list that follows.
1. TEDEDIFRHALEVWLRSFLTGNEEILNHLFDPHARVHIDGKNLHGMEMMVTHRQRHIEEARIRDSDIEHKNVIDGRIHIDIRVHGEVNGQEMDFNVTIIAMKVDGRWLIHSLHVE
2. SEEEDMARHFNELFIKMLKTGNEEEIKKMADPEVRIIIDVGDYIERDHGWEVLKREREWLGIKHIDIERAEIRVFDGRVHLKLDGRSNVNGKEIEVEIINDTEKINGRWRMKNLRYIFK

Ans:
[0.265, 1.08]

Please go through the list and note protease stability score for each sequence.
1. DELEEVIQKVAEMWVRLYKTGNEEIIHKLADPDVRAVYNGVENIGMHRHVELLHRLLEEIRIHDIRINRIEVQGEKAHNDTQVHFIVGEKRETRETHIEIVVVNGVIKEVVIRIH
2. DETTEHMVHFFKETLHAIRTGDFKAQEELFDPNARVDVGDYKFHGRETISEWLRRRNEQLGFKHIEIRINHVEYINGKISVIGSVDSDINGVRIRHERREEYVVINGVLTLVRLEHR
3. DEIEDELRTVYELTVKALTTGNEDLLRNYLDPDTRFIIDGRDLHGMDEINELWREWRIHIHDTKIHSIRTQGNFADVHGRLHGTFIFNGKIEHTTREVRLIFVKVNGRWVINSVVIR
4. TEEEETARHMVHEFYEVIKTGDEETFRKLLDPNTKLHVNGKERHGREAIDEMYHRFKNVRIHVEHVDVVDGKIDLRENWIQGDKETIVRIEAHKVDGRWELRSVHIH
5. DREEEKLLHAIKLLLHNWMTGDEDSEIDLMDPNARIVWNGVELHGMTEVRRFLHEYHRRFDVFTHTHIDHYRVIGDKAESHIRLEGSVDGRTIKHQTFILMSKYNGKWTNQTLTFE
6. EHEEEHTRHFMHFFIEMVETGDETALHKLLDPNAKYIQGDKHLVGRELMVEWMEELVRRFKNIRVHITEIERQGDKARVDEKWDINGKKIKTELIITKIDGQWRIHEIRVK
7. DEDEEEWHRFLELVHHFLRTGDWRRILDLIDPRALVHVGDKTFHGRHAIEHLLRHIHDRIPGMKQSLIIDHHDSQGDKIHLDVTLDLHFNGVEYHLRERTLELKINGKWVEKVREVD
8. SEIEEFTRKLLEMFLEAFLTGDWKFLWELADPNVRLNVGDKHAHGMESSKHLLDEWLTEMRLRDMHVHSVHFQGEKRDNNGKEHRIYGDKVRLWDVHLHLVIVNGRLKEVNIEER

Ans:
1. 0.629
2. 1.12
3. 1.63
4. 1.36
5. 1.13
6. 1.23
7. 0.821
8. 1.31
